The origin of these recorded values is patent US20230287082A1.

ASSAYED TARGET: human NKp30 (human) (UniProt O14931)
Sequence (O14931 19-135 limits assumed): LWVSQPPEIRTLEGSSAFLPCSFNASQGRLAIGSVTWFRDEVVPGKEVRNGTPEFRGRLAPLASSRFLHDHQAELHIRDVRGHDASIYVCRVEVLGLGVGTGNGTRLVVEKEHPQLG
ASSAY REMARKS: BLI, immunoligand on anti-hFc tip
TEST READOUT: koff

| BINDER | koff |
| --- | --- |
| ΔB7-H6_S2#13-SEED-PGLALA (bispecific antibody, part only; not given: SEED Fc chains and hu225 Fab, part only) chain, part: DLKVEMMAGGTQITPLNDNVTIFCNIFYSQPLNITSMGITWFWKSLTFDKEVKVFEFWGDHQEAFRPGAIVSPWRLKSGDASLRLPGIQLEEAGEYRCEVVVTPYKAQGTVQLEVVASPAS | 0.0842 s⁻¹ |
| ΔB7-H6_S3#10-SEED-PGLALA (bispecific antibody, part only; not given: SEED Fc chains and hu225 Fab, part only) chain, part: DLKVEMMAGGTQITPLNDNVTIFCNIFYSQPLNITSMGITWFWKSLTFDKEVKVFEFYGDHQEAFRPGAIVSPWRLKSGDASLRLPGIQLEEAGEYRCEVFVTPYKAQGTVQLEVVASPAS | 0.0998 s⁻¹ |
| ΔB7-H6_S3#29-SEED-PGLALA (bispecific antibody, part only; not given: SEED Fc chains and hu225 EGFR Fab, part only) chain, part: DLKVEMMAGGTQITPLNDNVTIFCNIFYSQPLNITVMGITWFWKSLTFDKEVKVFEFWGDHQEAFRPGAIVSPWRLKSGDASLRLPGIQLEEAGEYRCEVIVTPYKAQGTVQLEVVASPAS | 0.0175 s⁻¹ |
| ΔB7-H6_S3#4-SEED-PGLALA (bispecific antibody, part only; not given: SEED Fc chains and hu225 Fab, part only) chain, part: DLKVEMMAGGTQITPLNDNVTIFCNIFYSQPLNITIMGITWFWKSLTFDKEVKVFEFWGDHQEAFRPGAIVSPWRLKSGDASLRLPGIQLEEAGEYRCEVVVTPLKAQGTVQLEVVASPAS | 0.0149 s⁻¹ |
| ΔB7-H6_S3#5-SEED-PGLALA (bispecific antibody, part only; not given: SEED Fc chains and hu225 Fab, part only) chain, part: DLKVEMMAGGTQITPLNDNVTIFCNIFYSQPLNITVMGITWFWKSLTFDKEVKVFEFWGDHQEAFRPGAIVSPWRLKSGDASLRLPGIQLEEAGEYRCEVVVTPYKAQGTVQLEVVASPAS | 0.018 s⁻¹ |

Report koff for ΔB7-H6_S2#4-SEED-PGLALA (bispecific antibody, part only; not given: SEED Fc chains and hu225 Fab, part only) chain, part: DLKVEMMAGGTQITPLNDNVTIFCNIFYSQPLNITHMGITWFWKSLTFDKEVKVFEFYADHQEAIRPGAIVSPWRLKSGDASLRLPGIQLEEAGEYRCEVVVTPYKAQGTVQLEVVASPAS
0.122 s⁻¹

Report koff for ΔB7-H6_S2#3-SEED-PGLALA (bispecific antibody, part only; not given: SEED Fc chains and hu225 Fab, part only) chain, part: DLKVEMMAGGTQITPLNDNVTIFCNIFYSQPLNITTMGITWFWKSLTFDKEVKVFEFWGDHQEAFRPGAIVSPWRLKSGDASLRLPGIQLEEAGEYRCEVVVTPLKAQGTVQLEVVASPAS
0.106 s⁻¹

Report koff for ΔB7-H6_S3#30-SEED-PGLALA (bispecific antibody, part only; not given: SEED Fc chains and hu225 Fab, part only) chain, part: DLKVEMMAGGTQITPLNDNVTIFCNIFYSQPLNITEMGITWFWKSLTFDKEVKVFEFWGDHQEAFRPGAIVSPWRLKSGDASLRLPGIQLEEAGEYRCEVIVTPLKAQGTVQLEVVASPAS
0.0776 s⁻¹
